Values from the RNAGym collection of RNA variant scans (doi:10.1073/pnas.2313332121)

B1: TPR t1 (parent)
chain: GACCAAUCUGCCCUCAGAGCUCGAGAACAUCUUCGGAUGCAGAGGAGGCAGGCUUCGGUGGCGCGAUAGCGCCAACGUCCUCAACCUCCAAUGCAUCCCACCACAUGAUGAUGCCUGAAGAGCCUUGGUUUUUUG

- Variants of: B1
- Measurement notes: polymerase ribozyme fitness, log enrichment relative to wild type (log ratio); higher = more active; in vitro selection for triplet polymerase activity
Note to self: values exactly at -3 are YES. So polymerase ribozyme fitness (log ratio) at or above -3 is YES, below is NO.

Entry A75U C99U U109G C115U U116A : is its polymerase ribozyme fitness (log ratio) no less than -3?
NO

Moving on to G10A C11A U14G U54C C56U U81A
YES

Moving on to C11U G61A C94G
YES

Moving on to C3A G48U U125A
YES

Moving on to C11A A46U C53A C72A
YES

Moving on to C11G G17A C124U
NO

Moving on to G61A G71U
YES

Moving on to A5U G63U C102A
NO

Moving on to C11U A29U C53U C72A C123A
YES

Moving on to A37U A91U U130A
YES

Moving on to A84U G117C C124G
YES

Moving on to U78G C80U
YES

Moving on to A50G U55A G69A
YES

Moving on to G48U G69U G135A
YES

Moving on to C11G A29G C72G C123A
YES

Moving on to C11G G48C G110A
YES

Moving on to C8G C13G C98U
YES

Moving on to A41C C80U C115U
NO

Moving on to A18C C40U A41G C56G
NO

Moving on to C12A G113C
YES

Moving on to G77U U81G
NO

Moving on to U9A A46G C85U U125A
YES

Moving on to C72U A75U C114A G122C
YES

Moving on to U7A A41U G71A C85U U87A
NO

Moving on to A6U C73U
YES

Moving on to C124A G127C
YES

Moving on to G69U C94U
YES

Moving on to C11A G58C C72U G122A U125A
YES

Moving on to A43G U54C C88U
YES

Moving on to G17A G47U
NO

Moving on to A41C C49A C72U
YES

Moving on to G35C G93A
NO

Moving on to C40G A100C
YES

Moving on to C4G A46U C53A C72A C86A
YES

Moving on to G39U C123G
YES

Moving on to A43U C53U G77U C85G U106A
NO

Moving on to U32G A103G C104A C123A
NO

Moving on to A43G A84U
YES

Moving on to C79U C94U C98U
YES

Moving on to A26U C53U C56U
NO

Moving on to G51A G65C C114G
NO

Moving on to C104A C115A
YES

Moving on to C12G C73A C88U G122A
YES

Moving on to A5U C11A G42C G63A C88U U106A A121C U125A
NO

Moving on to C3U C11G G63C C86U U109G U131A
NO

Moving on to C8G G52U C64U C73U U96G
YES

Moving on to G69U C102G
YES

Moving on to A27G C76U C89U G93A
NO

Moving on to C12G C28U C53A
YES

Moving on to C11U C12U
YES

Moving on to C72A A83U
YES

Moving on to G39U C56U C73U
YES

Moving on to A18C U32C A37U A50U G60A A83U
NO

Moving on to G61C C64G A111C
NO

Moving on to A2G G10U C88U A119U
YES

Moving on to C8A G93C
YES

Moving on to A26G C89G
NO

Moving on to G42C C64A
NO

Moving on to A16U G39U
NO

Moving on to A6U G19A G44A C53A G57A A100U C124U
NO

Moving on to U87A C124U
YES

Moving on to C12U A50G A74U U78C G93A
YES

Moving on to G47C U54G G58C G69U
YES

Moving on to G51U U87C C123A
YES

Moving on to C3U U21A A41G G48U C101G C124G
YES

Moving on to U14G C80U C102U C123G
YES

Moving on to C49A U55C C88G C94U C124U
YES

Moving on to C72G U81C C101U
YES

Moving on to A37G G113A
YES

Moving on to C31G G51U C97A C124U
NO

Moving on to G57C C97U
YES

Moving on to C4G G135U
YES

Moving on to A2G G51U C114U
NO

Moving on to C82A C123U
YES

Moving on to A41C A46C C114U U131C
NO

Moving on to C56A C124A G127A
YES

Moving on to U9G C11U G35U G69U C89U
NO

Moving on to A84C U116C
YES

Moving on to U9A A18G C82U C115U
NO

Moving on to C13A C94A C124A
YES

Moving on to U7A C15A C62U C64U G93U
YES

Moving on to A2C A100C U109A
NO

Moving on to U9G G48C G120A U130A G135U
YES

Moving on to C11U G47C C56U U78A A100U C115U U131C
NO

Moving on to C88U U125G
YES

Moving on to C11U G117C A119U
NO

Moving on to G61A A108U G120U
NO

Moving on to A43U G120C C124U
YES

Moving on to C3U C28U G71A C89A C123G U130C
NO

Moving on to A37G G47C C64U U87A G120C C124G
NO
